Taken from patent US20230233576A1.

Assay: Phase 1b severe COVID-19 study: pharmacokinetics (plasma concentrations, Bayesian population PK)
Format: in vivo, human
Details: human, plasma, oral, 300 mg, 300 mg BID; steady state (Day 3); plasma; severe COVID-19; Bayesian population PK; read-out: AUC0-12h, mean (SD)
Endpoint name: AUC(0-t) (ng·h/mL)
The reply should contain only the number, in ng·h/mL.

Lookup: Which AUC(0-t) value belongs to CN1C(=O)[C@@H](NC(=O)c2nnc(Cc3ccccc3)[nH]2)COc2cccnc21 ?
Found: 42200

----------
Test: Phase 1b severe COVID-19 study: pharmacokinetics (plasma concentrations, Bayesian population PK)
Assay type: in vivo, human
Settings: human, plasma, oral, 300 mg, Day 14 (n = 10); Mean (SD); 300 mg BID; plasma; participants with severe COVID-19; Bayesian population PK analysis; read-out: AUC0-12
Endpoint name: AUC(0-t) (µg·h/mL)
State just the number; it will be interpreted in µg·h/mL.

Lookup: Quick one: AUC(0-t) for CN1C(=O)[C@@H](NC(=O)c2nnc(Cc3ccccc3)[nH]2)COc2cccnc21 [RIPK1 Inhibitor] ?
Found: 48.4

----------
Experiment: Phase 1b severe COVID-19 study: pharmacokinetics (plasma concentrations, Bayesian population PK)
Type: in vivo, human
Conditions: human, plasma, oral, 300 mg, Day 1 (n = 46); Mean (SD); 300 mg BID; plasma; participants with severe COVID-19; Bayesian population PK analysis; read-out: Cmax
Endpoint name: Cmax (ng/mL)
I only need the number, in ng/mL, no unit after it.

Lookup: What value of Cmax has been recorded for this entry: CN1C(=O)[C@@H](NC(=O)c2nnc(Cc3ccccc3)[nH]2)COc2cccnc21
Found: 3680

----------
Assay: Phase 1b severe COVID-19 study: pharmacokinetics (plasma concentrations, Bayesian population PK)
Type: in vivo, human
Settings: human, plasma, oral, 300 mg, Day 7 (n = 26); Mean (SD); 300 mg BID; plasma; participants with severe COVID-19; Bayesian population PK analysis; read-out: Cmax
Endpoint name: Cmax (ng/mL)
Give the number; ng/mL is assumed, so skip it.

Lookup: // returns reported Cmax for input CN1C(=O)[C@@H](NC(=O)c2nnc(Cc3ccccc3)[nH]2)COc2cccnc21
Found: 5340

----------
Test: Phase 1b severe COVID-19 study: pharmacokinetics (plasma concentrations, Bayesian population PK)
Type: in vivo, human
Conditions: human, plasma, oral, 300 mg, Day 3 (n = 42); Mean (SD); 300 mg BID; plasma; participants with severe COVID-19; Bayesian population PK analysis; read-out: AUC0-12
Protocol: RIPK1 Inhibitor concentrations at selected time points over the two weeks of treatment were summarized by descriptive statistics. PK parameters such as Cmax, tmax, and AUC were calculated by a Bayesian analysis: the main results are presented in Section 5.2. Descriptive statistics on plasma concentration of RIPK1 Inhibitor were analyzed by the Sponsor's Biostatistics Department. […]
Endpoint name: AUC(0-t) (ng·h/mL)
Report as a plain number; the unit ng·h/mL is understood.

Lookup: Recorded AUC(0-t) for CN1C(=O)[C@@H](NC(=O)c2nnc(Cc3ccccc3)[nH]2)COc2cccnc21 , please?
Found: 42200
